Reference source for all entries: paper PMC5290327

Experiment: PK study
Assay type: in vivo, cynomolgus
Conditions: cynomolgus monkey, plasma, iv; cynomolgus i.v. 2 mg kg^−1
property name: Cmax (ng/mL)
Kindly provide the numeric value in ng/mL only, without the unit symbol.

Tell me Cmax reported for COC(=O)N1CCN(C(=N)c2cccc(NC(=O)Nc3ccc(S(=O)(=O)NCc4ccc(S(N)(=O)=O)cc4)cc3)c2)CC1 [SC83288] 6570

* * *

Assay: PK study
Type: in vivo, cynomolgus
Conditions: cynomolgus monkey, plasma, iv, 2 mg/kg, cynomolgus i.v. 2 mg kg^−1; read-out: t1/2 initial
property name: half-life (min)
Quick note: give the figure in min, leave out the unit.

Supply recorded half-life for COC(=O)N1CCN(C(=N)c2cccc(NC(=O)Nc3ccc(S(=O)(=O)NCc4ccc(S(N)(=O)=O)cc4)cc3)c2)CC1 [SC83288] here. 16

* * *

Experiment: In vitro metabolism in liver microsomes
Details: monkey, human, liver microsomes
property name: microsomal CLint at 10 μM (µL/min/mg)
Your answer is read as µL/min/mg, so omit the unit and give the number.

Note microsomal CLint at 10 μM for the compound shown: CCCCN1CCN(C(=N)c2cccc(NC(=O)Nc3ccc(S(=O)(=O)NCc4ccc(S(N)(=O)=O)cc4)cc3)c2)CC1 303

* * *

Test: PK study
Assay type: in vivo
Conditions: beagle, dog, plasma, iv, […], dog i.v. 1.7 mg kg^−1; read-out: t1/2 effective
property name: half-life (min)
Give the value in min but do not write min after it.

Return half-life for the following compound: COC(=O)N1CCN(C(=N)c2cccc(NC(=O)Nc3ccc(S(=O)(=O)NCc4ccc(S(N)(=O)=O)cc4)cc3)c2)CC1 35

* * *

Assay: PK study
Type: in vivo, cynomolgus
Conditions: cynomolgus monkey, plasma, iv; cynomolgus i.v. 2 mg kg^−1
property name: clearance (mL/min/kg)
Provide only the numeric value, understood in mL/min/kg.

Please supply the value of reported clearance for the item COC(=O)N1CCN(C(=N)c2cccc(NC(=O)Nc3ccc(S(=O)(=O)NCc4ccc(S(N)(=O)=O)cc4)cc3)c2)CC1 [SC83288] 7.83

* * *

Test: PK study
Format: in vivo, mouse
Conditions: plasma, ip; mouse i.p. 10 mg kg^−1
property name: AUC(0-inf)
For clarity, give the value followed by its unit.

Identify measured AUC(0-inf) corresponding to COC(=O)N1CCN(C(=N)c2cccc(NC(=O)Nc3ccc(S(=O)(=O)NCc4ccc(S(N)(=O)=O)cc4)cc3)c2)CC1 2020 ng·h/mL

* * *

Assay: PK study
Type: in vivo
Details: beagle, plasma, iv; dog i.v. 1.7 mg kg^−1
property name: Tmax (min)
Give your result in min as a bare value.

Find the measured Tmax of COC(=O)N1CCN(C(=N)c2cccc(NC(=O)Nc3ccc(S(=O)(=O)NCc4ccc(S(N)(=O)=O)cc4)cc3)c2)CC1 and report it. 5

* * *

Experiment: PK study
Type: in vivo
Conditions: beagle, plasma, iv; dog i.v. 1.7 mg kg^−1; read-out: MRT0-t
property name: MRT last (min)
Please respond with the number in min and leave the unit unwritten.

Entry COC(=O)N1CCN(C(=N)c2cccc(NC(=O)Nc3ccc(S(=O)(=O)NCc4ccc(S(N)(=O)=O)cc4)cc3)c2)CC1 needs its MRT last filled in; supply it. 50.4

* * *

Test system: CACO 2 cells
Test: Permeability assay
Format: in vitro ADME
Details: Supplementary Table 2
property name: Papp

// worked examples, Papp included
Respond only with Papp recorded for CCCN1CCN(C(=N)c2cccc(NC(=O)Nc3ccc(S(=O)(=O)NCc4ccc(S(N)(=O)=O)cc4)cc3)c2)CC1 [SC82367] 5.40 10-6 cm s-1

Recall and state the measured Papp for N=C(c1cccc(NC(=O)Nc2ccc(S(=O)(=O)NCc3ccc(S(N)(=O)=O)cc3)cc2)c1)N1CCOCC1 [SC87507] . 1.23 10-6 cm s-1

Note Papp for the molecule shown: N=C(N)c1cccc(NC(=O)Nc2ccc(S(=O)(=O)NCc3ccccc3)cc2)c1 [SC08165] 1.22 10-6 cm s-1

For N=C(c1cccc(NC(=O)Nc2ccc(S(=O)(=O)NCc3ccc(S(N)(=O)=O)cc3)cc2)c1)N1CCC(O)CC1 [SC77225] , write its Papp. 0.38 10-6 cm s-1

Give me measured Papp, please, for this molecule: CC(C)N1CCN(C(=N)c2cccc(NC(=O)Nc3ccc(S(=O)(=O)NCc4ccc(S(N)(=O)=O)cc4)cc3)c2)CC1 [SC82486] 2.50 10-6 cm s-1

---
Item CCC(=O)N1CCN(C(=N)c2cccc(NC(=O)Nc3ccc(S(=O)(=O)NCc4ccc(S(N)(=O)=O)cc4)cc3)c2)CC1 [SC83289] : provide Papp 1.70 10-6 cm s-1
